Just for reference, ChEMBL document CHEMBL4689842 is where these values come from.

Test system: U2OS
ASSAY: Incucyte cell viability with U2OS; further: filed as whole numbers so only -1 and 0 and 1 occur
Type: toxicity, cell-based
COND: human, 6 h, 10 µM, compound concentration 10 uM, replicate number 2, timepoint 6 hours

>  <COMPOUND>
CC(C)Oc1ccc(-c2nn([C@@H](C)c3oc4ccc(F)cc4c(=O)c3-c3cccc(F)c3)c3ncnc(N)c23)cc1F

>  <ASSAYED TARGET>
U2OS

>  <Growth Rate>
1

$$$$
>  <COMPOUND>
O=C(O)COc1cccc(CN(Cc2ccc(-n3cccn3)cc2)S(=O)(=O)c2cccnc2)c1

>  <ASSAYED TARGET>
U2OS

>  <Growth Rate>
0

$$$$
>  <COMPOUND>
Nc1nc(NCc2ccccc2)nc(-c2cccc(CO)c2)n1

>  <ASSAYED TARGET>
U2OS

>  <Growth Rate>
0

$$$$
>  <COMPOUND>
Cc1cc2c(cc1N1C(=O)c3cccc4c(CCCO)ccc(c34)C1=O)n(C)c(=O)n2C

>  <ASSAYED TARGET>
U2OS

>  <Growth Rate>
1

$$$$
>  <COMPOUND>
CCCCC[C@H](O)/C=C/[C@@H]1[C@@H](C/C=C\CCCC(=O)O)[C@@H](O)C[C@H]1O

>  <ASSAYED TARGET>
U2OS

>  <Growth Rate>
0

$$$$
>  <COMPOUND>
CC1(C)CNc2cc(NC(=O)c3cccnc3NCc3ccncc3)ccc21.O=P(O)(O)O.O=P(O)(O)O [MOTESANIB DIPHOSPHATE]

>  <ASSAYED TARGET>
U2OS

>  <Growth Rate>
0

$$$$
>  <COMPOUND>
CCC(=O)O[C@]1(C(=O)SCF)[C@H](C)C[C@H]2[C@@H]3C[C@H](F)C4=CC(=O)C=C[C@]4(C)[C@@]3(F)[C@@H](O)C[C@@]21C [FLUTICASONE PROPIONATE]

>  <ASSAYED TARGET>
U2OS

>  <Growth Rate>
1

$$$$
>  <COMPOUND>
CCC1(C2=NCCN2)Cc2ccccc2O1 (stereo unspecified)

>  <ASSAYED TARGET>
U2OS

>  <Growth Rate>
1

$$$$
>  <COMPOUND>
CC1=C(C#N)C(c2ccc3c(c2)c(NC(=O)c2ccccc2C)nn3C)C(C#N)=C(C)N1

>  <ASSAYED TARGET>
U2OS

>  <Growth Rate>
0

$$$$
>  <COMPOUND>
N#Cc1c(N)nc(SCC(N)=O)c(C#N)c1-c1ccc(OCC2CC2)cc1

>  <ASSAYED TARGET>
U2OS

>  <Growth Rate>
0

$$$$
>  <COMPOUND>
CCCn1c(=O)c2[nH]c(C34CC5CC(CC3C5)C4)nc2n(CCC)c1=O

>  <ASSAYED TARGET>
U2OS

>  <Growth Rate>
1

$$$$
>  <COMPOUND>
O=C(c1ccc(F)c(F)c1Nc1ccc(I)cc1F)N1CC(O)([C@@H]2CCCCN2)C1

>  <ASSAYED TARGET>
U2OS

>  <Growth Rate>
1

$$$$
>  <COMPOUND>
CNC(=O)c1cc(Oc2ccc(NC(=O)Nc3cc(C(C)(C)C)nn3-c3ccc4ncccc4c3)c(F)c2)ccn1

>  <ASSAYED TARGET>
U2OS

>  <Growth Rate>
1

$$$$
>  <COMPOUND>
CN(CCOc1ccc(C[C@H](Nc2ccccc2C(=O)c2ccccc2)C(=O)O)cc1)c1ccccn1.O

>  <ASSAYED TARGET>
U2OS

>  <Growth Rate>
0

$$$$
>  <COMPOUND>
C=CCN1C[C@H](C)N([C@H](c2ccc(C(=O)N(CC)CC)cc2)c2cccc(O)c2)C[C@H]1C

>  <ASSAYED TARGET>
U2OS

>  <Growth Rate>
1

$$$$
>  <COMPOUND>
CCCc1c(-c2ccc(O)cc2)nn(-c2ccc(O)cc2)c1-c1ccc(O)cc1

>  <ASSAYED TARGET>
U2OS

>  <Growth Rate>
1

$$$$
